// provenance: paper PMC11596155

Test system: Escherichia coli (ATCC 25922)
test: MIC and MBC by broth dilution, E. coli
Assay type: cell-based
experimental_conditions: broth dilution, overnight 37 °C

{"compound": "C[n+]1cn(C[C@@H](O)c2ccccc2)c(Cl)c1Cl.[I-] [(S)-P2]", "M.B.C. E. coli": "> 150 µg/mL"}
{"compound": "C[n+]1ccn(C[C@@H](O)c2ccccc2)c1.[I-] [(S)-P1]", "M.B.C. E. coli": "> 200 µg/mL"}
{"compound": "C[n+]1ccn(C[C@H](O)c2ccccc2)c1.[I-] [(R)-P1]", "M.B.C. E. coli": "> 200 µg/mL"}
{"compound": "CN1C(Cl)=C(Cl)N(C[C@H](O)c2ccccc2)[CH]1[AgH][I] (stereo partly drawn) [(R)-AgL2]", "M.B.C. E. coli": "> 100 µg/mL"}
{"compound": "CN1C=CN(C[C@H](O)c2ccccc2)[CH]1[Au-][Cl] (stereo partly drawn) [(R)-AuL1]", "M.B.C. E. coli": "> 150 µg/mL"}
{"compound": "CN1C(Cl)=C(Cl)N(C[C@H](O)c2ccccc2)[CH]1[Au-][Cl] (stereo partly drawn) [(R)-AuL2]", "M.B.C. E. coli": "> 150 µg/mL"}
{"compound": "CN1C(Cl)=C(Cl)N(C[C@@H](O)c2ccccc2)[CH]1[Au-][Cl] (stereo partly drawn) [(S)-AuL2]", "M.B.C. E. coli": "> 200 µg/mL"}
{"compound": "CN1C=CN(C[C@@H](O)c2ccccc2)[CH]1[AgH][I] (stereo partly drawn) [(S)-AgL1]", "M.B.C. E. coli": "> 200 µg/mL"}
{"compound": "CN1C(Cl)=C(Cl)N(C[C@@H](O)c2ccccc2)[CH]1[AgH][I] (stereo partly drawn) [(S)-AgL2]", "M.B.C. E. coli": "> 200 µg/mL"}
{"compound": "CN1C=CN(C[C@H](O)c2ccccc2)[CH]1[AgH][I] (stereo partly drawn) [(R)-AgL1]", "M.B.C. E. coli": "> 100 µg/mL"}
{"compound": "C[n+]1cn(C[C@H](O)c2ccccc2)c(Cl)c1Cl.[I-] [(R)-P2]", "M.B.C. E. coli": "> 200 µg/mL"}
{"compound": "CN1C=CN(C[C@@H](O)c2ccccc2)[CH]1[Au-][Cl] (stereo partly drawn) [(S)-AuL1]", "M.B.C. E. coli": "> 150 µg/mL"}

----------
# M.I.C. E. coli per entry
System: Escherichia coli (ATCC 25922)
test: MIC and MBC by broth dilution, E. coli
Type: cell-based
experimental_conditions: broth dilution, overnight 37 °C
property_measured: M.I.C. E. coli (µg/mL)

{"compound": "CN1C=CN(C[C@H](O)c2ccccc2)[CH]1[AgH][I] (stereo partly drawn) [(R)-AgL1]", "assay_system": "Escherichia coli (ATCC 25922)", "property_measured": "M.I.C. E. coli", "unit_of_measurement": "µg/mL", "reported_value": 25}
{"compound": "CN1C(Cl)=C(Cl)N(C[C@H](O)c2ccccc2)[CH]1[AgH][I] (stereo partly drawn) [(R)-AgL2]", "assay_system": "Escherichia coli (ATCC 25922)", "property_measured": "M.I.C. E. coli", "unit_of_measurement": "µg/mL", "reported_value": 50}
{"compound": "CN1C=CN(C[C@H](O)c2ccccc2)[CH]1[Au-][Cl] (stereo partly drawn) [(R)-AuL1]", "assay_system": "Escherichia coli (ATCC 25922)", "property_measured": "M.I.C. E. coli", "unit_of_measurement": "µg/mL", "reported_value": 75}
{"compound": "CN1C(Cl)=C(Cl)N(C[C@@H](O)c2ccccc2)[CH]1[AgH][I] (stereo partly drawn) [(S)-AgL2]", "assay_system": "Escherichia coli (ATCC 25922)", "property_measured": "M.I.C. E. coli", "unit_of_measurement": "µg/mL", "reported_value": 75}
{"compound": "CN1C=CN(C[C@@H](O)c2ccccc2)[CH]1[AgH][I] (stereo partly drawn) [(S)-AgL1]", "assay_system": "Escherichia coli (ATCC 25922)", "property_measured": "M.I.C. E. coli", "unit_of_measurement": "µg/mL", "reported_value": 75}
{"compound": "CN1C=CN(C[C@@H](O)c2ccccc2)[CH]1[Au-][Cl] (stereo partly drawn) [(S)-AuL1]", "assay_system": "Escherichia coli (ATCC 25922)", "property_measured": "M.I.C. E. coli", "unit_of_measurement": "µg/mL", "reported_value": 75}
{"compound": "CN1C(Cl)=C(Cl)N(C[C@@H](O)c2ccccc2)[CH]1[Au-][Cl] (stereo partly drawn) [(S)-AuL2]", "assay_system": "Escherichia coli (ATCC 25922)", "property_measured": "M.I.C. E. coli", "unit_of_measurement": "µg/mL", "reported_value": 100}
{"compound": "CN1C(Cl)=C(Cl)N(C[C@H](O)c2ccccc2)[CH]1[Au-][Cl] (stereo partly drawn) [(R)-AuL2]", "assay_system": "Escherichia coli (ATCC 25922)", "property_measured": "M.I.C. E. coli", "unit_of_measurement": "µg/mL", "reported_value": 75}

----------
System: MCF-7 cells
test: MTT assay, anticancer activity, MCF-7
Assay type: cell-based, human
experimental_conditions: 72 h, mean ± SD of three experiments
pIC50: −log10 of the molar value.
# binarize pIC50: threshold 5 inclusive, high side label 1, low side label 0

{"compound": "CN1C=CN(C[C@@H](O)c2ccccc2)[CH]1[AgH][I] (stereo partly drawn) [(S)-AgL1]", "label_value": "label 0"}
{"compound": "CN1C(Cl)=C(Cl)N(C[C@H](O)c2ccccc2)[CH]1[AgH][I] (stereo partly drawn) [(R)-AgL2]", "label_value": "label 0"}
{"compound": "CN1C=CN(C[C@H](O)c2ccccc2)[CH]1[Au-][Cl] (stereo partly drawn) [(R)-AuL1]", "label_value": "label 0"}
{"compound": "CN1C(Cl)=C(Cl)N(C[C@H](O)c2ccccc2)[CH]1[Au-][Cl] (stereo partly drawn) [(R)-AuL2]", "label_value": "label 1"}
{"compound": "CN1C=CN(C[C@H](O)c2ccccc2)[CH]1[AgH][I] (stereo partly drawn) [(R)-AgL1]", "label_value": "label 0"}
{"compound": "CN1C=CN(C[C@@H](O)c2ccccc2)[CH]1[Au-][Cl] (stereo partly drawn) [(S)-AuL1]", "label_value": "label 0"}
{"compound": "CN1C(Cl)=C(Cl)N(C[C@@H](O)c2ccccc2)[CH]1[AgH][I] (stereo partly drawn) [(S)-AgL2]", "label_value": "label 1"}
